System: SARS coronavirus 3C-like protease (3CLpro, nsp5)
Assay: blockers of SARS 3CLpro activity – biochemical, fluorescence, set 2, late-stage follow-up (AID 488984)
Details: recombinant 3CLpro, fluorogenic peptide cleavage; at 100 µM; stronger effect = higher value
PROPERTY_MEASURED: inhibition (%)

> print(dat)
                                   molecule                                    system  readout.unit  value.measured
1  CC(C)(C)NC(=O)C(c1ccsc1)N(C(=O)c1ccc(C#N)cc1)c1ccc(OCF)cc1 (centres undefined)  SARS coronavirus 3C-like protease (3CLpro, nsp5)             %            17.8
2  CC(C)(C)NC(=O)C(c1ccsc1)N(C(=O)Cc1c[nH]c2ccccc12)c1ccc(OCF)cc1 (centres undefined)  SARS coronavirus 3C-like protease (3CLpro, nsp5)             %            35.6
3  CC(C)(C)NC(=O)C(c1ccsc1)N(C(=O)Cc1cccc2ccccc12)C1CC1 (centres undefined)  SARS coronavirus 3C-like protease (3CLpro, nsp5)             %            16.5
4  CC(C)(C)NC(=O)C(c1ccsc1)N(C(=O)Cn1cnc2ccccc21)c1ccc(NS(C)(=O)=O)cc1 (centres undefined)  SARS coronavirus 3C-like protease (3CLpro, nsp5)             %              38
5  CC(C)(C)NC(=O)C(c1ccsc1)N(C(=O)c1n[nH]c2ccccc12)c1ccc(F)cc1 (centres undefined)  SARS coronavirus 3C-like protease (3CLpro, nsp5)             %            15.3
6  CC(C)(C)NC(=O)C(c1cccnc1)N(C(=O)c1ccco1)c1ccc(C(C)(C)C)cc1 (centres undefined)  SARS coronavirus 3C-like protease (3CLpro, nsp5)             %             102
7  CC(C)(C)NC(=O)C(c1ccsc1)N(C(=O)c1ccco1)c1ccc(F)cc1 (centres undefined)  SARS coronavirus 3C-like protease (3CLpro, nsp5)             %            11.2
8  CC(C)(C)NC(=O)C(c1cccnc1)N(C(=O)c1cccc2c1CCCC2)C1CC1 (centres undefined)  SARS coronavirus 3C-like protease (3CLpro, nsp5)             %            8.14
9  CC(C)(C)NC(=O)C(c1ccsc1)N(C(=O)c1ccc(C(F)(F)F)nc1)c1ccc(F)cc1 (centres undefined)  SARS coronavirus 3C-like protease (3CLpro, nsp5)             %            9.21

###

System: SARS coronavirus 3C-like protease (3CLpro, nsp5)
Assay: blockers of SARS 3CLpro activity – biochemical, fluorescence, set 2, late-stage follow-up (AID 488984)
Settings: recombinant 3CLpro, fluorogenic peptide cleavage; at 100 µM; stronger effect = higher value
Listing: inhibition of selected compounds
PROPERTY_MEASURED: inhibition (%)

> print(dat)
                                   compound  property.measured  value.measured
1  CC(C)(C)NC(=O)C(c1ccsc1)N(C(=O)c1ccco1)c1ccc(OC(F)F)cc1 (stereo not given)         inhibition            25.9
2  CC(C)(C)NC(=O)C(c1ccsc1)N(C(=O)Cc1cccc2ccccc12)c1ccc(OCF)cc1 (stereo not given)         inhibition            18.2
3  CC(C)(C)NC(=O)C(c1cccnc1)N(C(=O)Cc1c[nH]c2ccccc12)C1CC1 (stereo not given)         inhibition            8.97
4  CC(C)(C)NC(=O)C(c1ccsc1)N(C(=O)Cn1cnc2ccccc21)c1ccc(N)cc1 (stereo not given)         inhibition            12.6
5  CC(C)(C)NC(=O)C(c1ccsc1)N(C(=O)Cc1cccnc1)c1ccc(C(C)(C)C)cc1 (stereo not given)         inhibition            37.4

###

Test system: SARS coronavirus 3C-like protease (3CLpro, nsp5)
Assay: blockers of SARS 3CLpro activity – biochemical, fluorescence, set 2, late-stage follow-up (AID 488984)
Settings: recombinant 3CLpro, fluorogenic peptide cleavage; at 100 µM
Calls of active or inactive are those of the source. Cut-off read from the data, not from the text of the source: active = inhibition above about 55%; inactive = the rest.
Outcomes: active, inactive

> print(dat)
                                    molecule                                    system  group.label
 1  CC(=O)Nc1ccc(N(C(=O)Cn2c(C)nc3ccccc32)C(C(=O)NC(C)(C)C)c2ccsc2)cc1 (stereo not drawn)  SARS coronavirus 3C-like protease (3CLpro, nsp5)     inactive
 2  CC(C)(C)NC(=O)C(c1cccnc1)N(C(=O)Cc1c[nH]c2ccccc12)c1ccc(C(C)(C)C)cc1 (stereo not drawn)  SARS coronavirus 3C-like protease (3CLpro, nsp5)     inactive
 3  CC(C)c1ccc(N(C(=O)c2ccco2)C(C(=O)NC(C)(C)C)c2ccsc2)cc1 (stereo not drawn)  SARS coronavirus 3C-like protease (3CLpro, nsp5)     inactive
 4  CC(C)(C)NC(=O)C(c1cccnc1)N(C(=O)Cc1cccnc1)c1ccc(F)cc1 (stereo not drawn)  SARS coronavirus 3C-like protease (3CLpro, nsp5)     inactive
 5  CC(C)c1ccc(N(C(=O)Cc2cccnc2)C(C(=O)NC(C)(C)C)c2ccsc2)cc1 (stereo not drawn)  SARS coronavirus 3C-like protease (3CLpro, nsp5)     inactive
 6  CC(C)C(=O)Nc1ccc(N(C(=O)Cn2nnc3ccccc32)C(C(=O)NC(C)(C)C)c2ccsc2)cc1 (stereo not drawn)  SARS coronavirus 3C-like protease (3CLpro, nsp5)       active
 7  CC(C)c1ccc(N(C(=O)Cc2c[nH]c3ccccc23)C(C(=O)NC(C)(C)C)c2ccsc2)cc1 (stereo not drawn)  SARS coronavirus 3C-like protease (3CLpro, nsp5)     inactive
 8  CCC(=O)Nc1ccc(N(C(=O)Cn2cnc3ccccc32)C(C(=O)NC(C)(C)C)c2ccsc2)cc1 (stereo not drawn)  SARS coronavirus 3C-like protease (3CLpro, nsp5)       active
 9  CC(C)(C)NC(=O)C(c1cccnc1)N(C(=O)c1cccc2c1CCCC2)c1ccc(F)cc1 (stereo not drawn)  SARS coronavirus 3C-like protease (3CLpro, nsp5)     inactive
10  CC(C)(C)NC(=O)C(c1ccsc1)N(C(=O)c1cccc2c1CCCC2)C1CC1 (stereo not drawn)  SARS coronavirus 3C-like protease (3CLpro, nsp5)     inactive
11  CC(C)c1ccc(N(C(=O)Cc2cccc3ccccc23)C(C(=O)NC(C)(C)C)c2ccsc2)cc1 (stereo not drawn)  SARS coronavirus 3C-like protease (3CLpro, nsp5)     inactive
12  CC(C)c1ccc(N(C(=O)Cc2cccnc2)C(C(=O)NC(C)(C)C)c2cccnc2)cc1 (stereo not drawn)  SARS coronavirus 3C-like protease (3CLpro, nsp5)     inactive
13  CC(C)(C)NC(=O)C(c1cccnc1)N(C(=O)Cc1c[nH]c2ccccc12)c1ccc(F)cc1 (stereo not drawn)  SARS coronavirus 3C-like protease (3CLpro, nsp5)     inactive
14  CCC(=O)Nc1ccc(N(C(=O)Cn2c(C)nc3ccccc32)C(C(=O)NC(C)(C)C)c2ccsc2)cc1 (stereo not drawn)  SARS coronavirus 3C-like protease (3CLpro, nsp5)     inactive
15  CC(C)(C)NC(=O)C(c1ccsc1)N(C(=O)c1ccco1)C1CC1 (stereo not drawn)  SARS coronavirus 3C-like protease (3CLpro, nsp5)     inactive
16  Cc1nccn1CC(=O)N(c1ccc(N)cc1)C(C(=O)NC(C)(C)C)c1ccsc1 (stereo not drawn)  SARS coronavirus 3C-like protease (3CLpro, nsp5)     inactive
17  CC(C)(C)NC(=O)C(c1cccnc1)N(C(=O)Cc1cccc2ccccc12)c1ccc(F)cc1 (stereo not drawn)  SARS coronavirus 3C-like protease (3CLpro, nsp5)     inactive
18  CC(C)(C)NC(=O)C(c1ccsc1)N(C(=O)Cc1cccnc1)c1ccc(F)cc1 (stereo not drawn)  SARS coronavirus 3C-like protease (3CLpro, nsp5)     inactive

###

Test system: SARS coronavirus 3C-like protease (3CLpro, nsp5)
Test: blockers of SARS 3CLpro activity – biochemical, fluorescence, set 2, late-stage follow-up (AID 488984)
Details: recombinant 3CLpro, fluorogenic peptide cleavage; at 100 µM; stronger effect = higher value
Label rule, in plain words: inhibition of 20% and up is criterion met, under 20% is criterion not met.

> print(dat)
                                   compound        group.label
1  CC(C)(C)NC(=O)C(c1ccsc1)N(C(=O)c1ccc(C(F)(F)F)nc1)C1CC1 (stereo not given)  criterion not met
2  CC(=O)Nc1ccc(N(C(=O)Cn2nnc3ccccc32)C(C(=O)NC(C)(C)C)c2ccsc2)cc1 (stereo not given)      criterion met
3  CC(C)(C)NC(=O)C(c1cccnc1)N(C(=O)c1ccc(C(F)(F)F)nc1)c1ccc(F)cc1 (stereo not given)  criterion not met
4  CC(C)(C)NC(=O)C(c1ccsc1)N(C(=O)Cc1c[nH]c2ccccc12)c1ccc(C(C)(C)C)cc1 (stereo not given)      criterion met

These measurements were taken from PubChem BioAssay AID488984.
